# System Under Test: UniProt P31639
# Sequence (P31639 whole entry): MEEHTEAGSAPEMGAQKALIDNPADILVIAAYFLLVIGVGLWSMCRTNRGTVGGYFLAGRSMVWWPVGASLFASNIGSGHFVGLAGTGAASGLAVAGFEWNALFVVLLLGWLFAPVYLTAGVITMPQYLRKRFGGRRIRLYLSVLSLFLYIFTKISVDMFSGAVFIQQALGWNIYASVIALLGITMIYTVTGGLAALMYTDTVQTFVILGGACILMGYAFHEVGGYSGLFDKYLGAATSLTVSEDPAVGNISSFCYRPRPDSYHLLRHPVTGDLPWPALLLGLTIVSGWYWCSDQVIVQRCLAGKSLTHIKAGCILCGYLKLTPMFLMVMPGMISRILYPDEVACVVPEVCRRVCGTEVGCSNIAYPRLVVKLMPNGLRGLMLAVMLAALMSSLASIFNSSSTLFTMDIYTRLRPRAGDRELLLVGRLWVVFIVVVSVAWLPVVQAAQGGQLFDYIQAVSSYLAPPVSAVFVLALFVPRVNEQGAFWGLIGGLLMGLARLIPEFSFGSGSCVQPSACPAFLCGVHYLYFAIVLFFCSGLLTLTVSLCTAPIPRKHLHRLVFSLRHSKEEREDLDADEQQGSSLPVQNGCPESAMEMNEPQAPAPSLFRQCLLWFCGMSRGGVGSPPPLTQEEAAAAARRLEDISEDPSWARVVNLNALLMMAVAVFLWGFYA
# Measurement Protocol: 14C-AMG uptake in BHK cells transfected with SGLT2 (96-well cell-based assay)
# Condition Parameters: 2 mM AMG, 37° C., 90 min
# Text: The compounds can be tested for their SGLT inhibition properties by means of BHK cells expressing SGLT1 and SGLT2. The production of the cells and the testing can be carried out as described below. […] The final vector KL224 together with an additional vector containing a dihydrofolate reductase gene as a selection marker was introduced into cells. […] After growth for 2-3 weeks, the cells were cloned (0.5 cells/well) and the clones were investigated for SGLT expression in radioactivity uptake tests. […]
Metric Name: IC50

Q: Item CNc1nnc(-c2cc(OC)cc(OC)c2-c2nc3ncccn3c2Nc2c(Cl)cc(F)cc2Cl)o1 with UniProt P31639 - IC50?
Result: 10 to 1000 nM

Q: # repeat for CCNc1nnc(-c2cc(OC)cc(OC)c2-c2nc3ncccn3c2Nc2c(Cl)cccc2Cl)o1
Result: 10 to 1000 nM

Q: # repeat for CNc1nnc(-c2cccc(Cl)c2-c2nc3ncccn3c2Nc2c(C)cccc2C)o1
Result: 10 to 1000 nM

Q: # repeat for COc1cc(C(N)=O)c(-c2nc3ncccn3c2Nc2c(Cl)cccc2Cl)c(OC)c1OC
Result: 1000 to 10000 nM

Q: # repeat for CNc1nnc(-c2cc(OC)ccc2-c2nc3ncccn3c2Nc2c(C)cccc2C)o1
Result: 10 to 1000 nM

Q: # repeat for CNc1nnc(-c2cc(Cl)cc(Cl)c2-c2nc3ncccn3c2Nc2c(C)cccc2C)o1
Result: 10 to 1000 nM

Q: # repeat for Cc1cccc(C)c1Nc1c(-c2ccccc2OCC(N)=O)nc2ncccn12
Result: 1000 to 10000 nM

Okay, next one:
Q: Item CCNc1nnc(-c2ccccc2-c2nc3ncccn3c2Nc2c(Cl)cccc2Cl)o1 with UniProt P31639 - IC50?
Result: 10 to 1000 nM
